assayed target: Protein RecA (Mycobacterium tuberculosis)
Sequence (P9WHJ3 whole entry): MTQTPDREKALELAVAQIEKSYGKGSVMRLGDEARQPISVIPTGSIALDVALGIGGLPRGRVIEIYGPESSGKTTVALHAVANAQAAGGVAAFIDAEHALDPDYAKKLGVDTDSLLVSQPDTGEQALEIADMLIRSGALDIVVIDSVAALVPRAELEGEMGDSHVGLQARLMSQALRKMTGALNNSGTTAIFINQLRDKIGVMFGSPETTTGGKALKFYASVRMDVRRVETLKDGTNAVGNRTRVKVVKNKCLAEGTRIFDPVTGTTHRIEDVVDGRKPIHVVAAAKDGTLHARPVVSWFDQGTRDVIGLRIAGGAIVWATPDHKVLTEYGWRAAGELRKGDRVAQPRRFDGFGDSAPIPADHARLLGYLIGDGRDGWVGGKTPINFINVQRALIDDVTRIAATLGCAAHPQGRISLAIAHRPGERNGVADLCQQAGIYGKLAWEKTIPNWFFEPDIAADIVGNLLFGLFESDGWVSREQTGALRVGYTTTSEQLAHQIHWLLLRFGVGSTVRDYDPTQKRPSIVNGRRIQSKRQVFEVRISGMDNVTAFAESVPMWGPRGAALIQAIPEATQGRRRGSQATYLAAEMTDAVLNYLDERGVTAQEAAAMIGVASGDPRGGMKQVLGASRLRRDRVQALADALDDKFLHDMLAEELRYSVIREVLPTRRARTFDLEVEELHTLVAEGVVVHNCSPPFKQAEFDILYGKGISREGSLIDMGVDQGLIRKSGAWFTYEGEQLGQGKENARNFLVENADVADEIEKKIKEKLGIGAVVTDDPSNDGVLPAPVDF
measurement protocol: Fluorescence Cell-Free Homogeneous Dose Retest to Identify Inhibitors of RecA-Intein Splicing Activity. [Related pubchem assays (depositor defined):AID2097, AID2223, AID489010, AID492950]
Type: functional
The source made the active and inactive calls. No stated cut-off is given here; in the data, actives have a measured EC50 and inactives only a lower limit.
Hello, when you answer, please use one of the following outcomes: Y = active, N = inactive

Consider the worked cases shown below.
{"compound": "Cc1nn(-c2ccccc2)c2c1C(c1ccc(F)cc1)C(C#N)=C(N)O2 (stereo not drawn)", "classification": "Y"}
{"compound": "CCOC(=O)CN1C(=O)N[C@@H](c2cccc(C(F)(F)F)c2)C(C(C)=O)=C1C", "classification": "N"}

## Task Fill in: this test's call for Cc1cccc(CS(=O)(=O)c2nnc([C@H](Cc3ccccc3)NC(=O)OC(C)(C)C)o2)c1 is ___
## Result Y

## Task Hi, sorry to bother you, what did the test record for Brc1ccc(CNc2ccc3ncccc3c2)cc1 ?
## Result N

## Task Assay outcome for Cc1ccc(C)c(S(=O)(=O)Nc2ccc(O)c3ccccc23)c1 : what was it?
## Result Y

## Task Assay outcome for COc1ccc(N2C(=O)CSC23C(=O)N2c4c(cccc43)C(C)=CC2(C)C)cc1 (stereo not drawn) : what was it?
## Result Y

## Task Please indicate how the test categorized N#CCCn1[nH]c(-c2ccccc2)cc1=O .
## Result Y

## Task Kindly provide the recorded test outcome for the following compound: Cc1n[nH]c2c1C(c1cccc(OC(=O)N3CCOCC3)c1)C(C#N)=C(N)O2 (stereo not drawn)
## Result Y
